Target Entity: T1, DEAF1-FLAG (UniProt O75398 1-565)
T1 sequence: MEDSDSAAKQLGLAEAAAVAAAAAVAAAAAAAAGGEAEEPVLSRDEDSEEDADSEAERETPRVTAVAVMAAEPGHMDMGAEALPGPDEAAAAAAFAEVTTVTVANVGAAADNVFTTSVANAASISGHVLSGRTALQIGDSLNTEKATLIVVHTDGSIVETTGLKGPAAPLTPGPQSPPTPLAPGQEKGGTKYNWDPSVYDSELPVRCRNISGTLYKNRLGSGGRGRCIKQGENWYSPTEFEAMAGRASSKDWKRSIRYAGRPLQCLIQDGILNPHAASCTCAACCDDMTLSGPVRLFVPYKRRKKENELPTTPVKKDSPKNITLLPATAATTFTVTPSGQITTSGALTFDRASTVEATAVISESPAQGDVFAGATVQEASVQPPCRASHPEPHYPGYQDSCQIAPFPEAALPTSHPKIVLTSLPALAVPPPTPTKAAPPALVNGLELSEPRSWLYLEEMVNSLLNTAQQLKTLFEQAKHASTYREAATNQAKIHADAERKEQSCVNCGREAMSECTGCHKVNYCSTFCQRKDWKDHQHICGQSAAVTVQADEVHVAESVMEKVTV
Assay Summary: EMSA; EMSA: 200 ng DEAF1-FLAG, 30 min at room temperature, 1x EMSA binding buffer (composition and pH not given), 1 ug dA:dT, 5% native polyacrylamide gel
Protocol Conditions: protein: recombinant; tags: FLAG; chain copies: 2; label: 32P
Property Measured: binding result

// known answers, use as guide
{"Binder": "8-space probe (two TTCGGG motifs) (dsDNA) DNA 1: TTGAGTTCGGGAAACTTCGGGCTCAA DNA 2: TTGAGCCCGAAGTTTCCCGAACTCAA", "Result": "binds"}
{"Binder": "11-space probe (dsDNA) DNA 1: TTGAGTTCGGGAAAAAACTTCGGGCTCAA DNA 2: TTGAGCCCGAAGTTTTTTCCCGAACTCAA", "Result": "binds"}
{"Binder": "8mut (TTCGGG to AACGCC in both half-sites) (dsDNA) DNA 1: TTGAGAACGCCAAACAACGCCCTCAA DNA 2: TTGAGGGCGTTGTTTGGCGTTCTCAA", "Result": "no binding"}
{"Binder": "6-space methylated probe (dsDNA, 5-methylcytosine on both strands at the CpG of the second half-site) DNA 1: TTGAGTTCGGGTGTTCGGGCTCAA DNA 2: TTGAGCCCGAACACCCGAACTCAA", "Result": "no binding"}
{"Binder": "10-space probe (dsDNA) DNA 1: TTGAGTTCGGGAAAAACTTCGGGCTCAA DNA 2: TTGAGCCCGAAGTTTTTCCCGAACTCAA", "Result": "binds"}

Please look at the following binder next.
Value of measured binding result for the entry 6-space probe (two TTCGGG motifs) (dsDNA) DNA 1: TTGAGTTCGGGTGTTCGGGCTCAA DNA 2: TTGAGCCCGAACACCCGAACTCAA : binds
